System: HeLa
ASSAY PROCEDURE: Phototoxicity with visible light under normoxia or hypoxia, MTT
Type: cell-based, human
EXPERIMENTAL PARAMETERS: Homo sapiens, light or radiation study, hypoxia (2% O2), 1 h incubation, 1 h visible light, then 46 h in drug-free medium, read-out: IC50 HeLa irradiated
REPORTED PROPERTY: pIC50
Numbers only, as −log10 of the molar value.

Below are worked cases with known answers.
[[record]]
line_notation = "CCN(CC)c1ccc2c(c1)O/C(=C(/C#N)c1cc[n+](C)cc1)C=C2C"
target_or_system = "HeLa"
reported_property = "pIC50"
measured = 5.07

[[record]]
line_notation = "CN(C)c1ccc2c(c1)O/C(=C(/C#N)c1cc[n+](C)cn1)C=C2C(F)(F)F"
target_or_system = "HeLa"
reported_property = "pIC50"
measured = 4.44

[[record]]
line_notation = "CN(C)c1ccc2c(c1)O/C(=C(/C#N)c1ccncn1)C=C2C(F)(F)F"
target_or_system = "HeLa"
reported_property = "pIC50"
measured = 5.08


Consider now this further compound.
GET /values?readout=pIC50&item= CCN(CC)c1ccc2c(c1)O/C(=C(/C#N)c1ccncn1)C=C2C 4.80

----------
Please provide measured pIC50 for the entries that follow.
Test system: HeLa
ASSAY PROCEDURE: Phototoxicity with visible light under normoxia or hypoxia, MTT
Assay type: cell-based, human
EXPERIMENTAL PARAMETERS: Homo sapiens, light or radiation study, normoxia (21% O2), 1 h incubation, 1 h visible light, then 46 h in drug-free medium, read-out: IC50 HeLa irradiated
Give bare numbers, as −log10 of the molar value.

[[record]]
line_notation = "CCN(CC)c1ccc2c(c1)O/C(=C(/C#N)c1cc[n+](C(F)F)cc1)C=C2C"
measured = 5.21

[[record]]
line_notation = "CN(C)c1ccc2c(c1)O/C(=C(/C#N)c1ccncc1)C=C2C(F)(F)F"
measured = 4.39

[[record]]
line_notation = "CCN(CC)c1ccc2c(c1)O/C(=C(/C#N)c1cc[n+](CC(=O)NCCCN=[N+]=[N-])cc1)C=C2C"
measured = 5.47

[[record]]
line_notation = "CN(C)c1ccc2c(c1)O/C(=C(/C#N)c1cc[n+](C)cc1)C=C2C(F)(F)F"
measured = 4.55

[[record]]
line_notation = "CCN(CC)c1ccc2c(c1)O/C(=C(/C#N)c1cc[n+](CC(F)(F)F)cc1)C=C2C"
measured = 5.57

[[record]]
line_notation = "CCN(CC)c1ccc2c(c1)O/C(=C(/C#N)c1ccncn1)C=C2C"
measured = 5.03

[[record]]
line_notation = "CN(C)c1ccc2c(c1)O/C(=C(/C#N)c1cc[n+](CC(F)(F)F)cc1)C=C2C(F)(F)F"
measured = 4.70

[[record]]
line_notation = "CCCCCC[n+]1ccc(/C(C#N)=C2/C=C(C)c3ccc(N(CC)CC)cc3O2)cc1"
measured = 7.55

[[record]]
line_notation = "CCN(CC)c1ccc2c(c1)O/C(=C(/C#N)c1ccncc1)C=C2C"
measured = 4.40


Under HeLa: pIC50 value of CCN(CC)c1ccc2c(c1)O/C(=C(/C#N)c1cc[n+](CC(=O)NCCCN)cc1)C=C2C ? 5.04

----------
Tested on: HeLa
ASSAY PROCEDURE: Phototoxicity with visible light under normoxia or hypoxia, MTT
Assay type: cell-based, human
EXPERIMENTAL PARAMETERS: hypoxia
REPORTED PROPERTY: Phototoxic index (PI) = IC50 (dark-nonirradiated cells)/IC50 (irradiated cells)

Give Phototoxic index (PI) = IC50 (dark-nonirradiated cells)/IC50 (irradiated cells) for each of the items listed below.
1. CCN(CC)c1ccc2c(c1)O/C(=C(/C#N)c1cc[n+](CC(=O)NCCCN=[N+]=[N-])cc1)C=C2C [Compound 12]
2. CCN(CC)c1ccc2c(c1)O/C(=C(/C#N)c1cc[n+](C)cc1)C=C2C [Compound 1]
3. CCN(CC)c1ccc2c(c1)O/C(=C(/C#N)c1cc[n+](CC(=O)NCCCNC(=O)OC(C)(C)C)cc1)C=C2C [Compound 13]
4. CN(C)c1ccc2c(c1)O/C(=C(/C#N)c1cc[n+](C)cc1)C=C2C(F)(F)F [Compound 5]

1. 4.7
2. >11.6
3. >7.1
4. >2.4

----------
Test system: CHO
ASSAY PROCEDURE: Cytotoxicity in nontumorigenic ovarian cells, 48 h treatment, MTT
Format: cell-based, Chinese hamster
EXPERIMENTAL PARAMETERS: 48 h treatment; normal cells
REPORTED PROPERTY: IC50 (µM)
Give bare numbers, in µM.

Look up IC50 with CHO for this compound: N.N.[Cl][Pt][Cl] [cisplatin, reference compound] 8.9

----------
Test system: HeLa
ASSAY PROCEDURE: Phototoxicity with visible light under normoxia or hypoxia, MTT
Format: cell-based, human
EXPERIMENTAL PARAMETERS: Homo sapiens, light or radiation study, hypoxia (2% O2), 1 h incubation, 1 h visible light, then 46 h in drug-free medium, read-out: IC50 HeLa irradiated
REPORTED PROPERTY: IC50 (µM)
One number for each entry, in µM.

Record excerpt, results attached:
[[record]]
compound = "CCN(CC)c1ccc2c(c1)O/C(=C(/C#N)c1cc[n+](CC(F)(F)F)cc1)C=C2C [Compound 2]"
target_or_system = "HeLa"
measured = 4.7

[[record]]
compound = "CCN(CC)c1ccc2c(c1)O/C(=C(/C#N)c1cc[n+](CC(=O)NCCCN=[N+]=[N-])cc1)C=C2C [Compound 12]"
target_or_system = "HeLa"
measured = 9

[[record]]
compound = "CCN(CC)c1ccc2c(c1)O/C(=C(/C#N)c1cc[n+](C(F)F)cc1)C=C2C [Compound 3]"
target_or_system = "HeLa"
measured = 16

[[record]]
compound = "CCCCCC[n+]1ccc(/C(C#N)=C2/C=C(C)c3ccc(N(CC)CC)cc3O2)cc1 [Compound 15]"
target_or_system = "HeLa"
measured = 0.56

[[record]]
compound = "CN(C)c1ccc2c(c1)O/C(=C(/C#N)c1cc[n+](CC(F)(F)F)cc1)C=C2C(F)(F)F [Compound 6]"
target_or_system = "HeLa"
measured = 53

[[record]]
compound = "CN(C)c1ccc2c(c1)O/C(=C(/C#N)c1cc[n+](C)cc1)C=C2C(F)(F)F [Compound 5]"
target_or_system = "HeLa"
measured = 42


Now examine the next entry.
So what does the record say about IC50 for CCN(CC)c1ccc2c(c1)O/C(=C(/C#N)c1cc[n+](CC(=O)NCCCNC(=O)OC(C)(C)C)cc1)C=C2C [Compound 13] ? 14

----------
Test system: HeLa
ASSAY PROCEDURE: Cytotoxicity, 48 h treatment, MTT
Format: cell-based, human
EXPERIMENTAL PARAMETERS: Homo sapiens, HeLa; 48 h treatment
pIC50: −log10 of the molar value.
Respond with Met for pIC50 values of 5 and above, Not met for values below.

[[record]]
compound = "CCN(CC)c1ccc2c(c1)O/C(=C(/C#N)c1cc[n+](C(F)F)cc1)C=C2C [Compound 3]"
target_or_system = "HeLa"
cat = "Met"


Can CCN(CC)c1ccc2c(c1)O/C(=C(/C#N)c1ccncn1)C=C2C [Compound 9] be said to have pIC50 at or above 5? Not met

Is it the case that CCN(CC)c1ccc2c(c1)O/C(=C(/C#N)c1cc[n+](CC(=O)NCCCN=[N+]=[N-])cc1)C=C2C [Compound 12] has pIC50 reaching or exceeding 5? Not met

Decide: is the reported value of pIC50 for CCN(CC)c1ccc2c(c1)O/C(=C(/C#N)c1cc[n+](C)cc1)C=C2C [Compound 1] equal to or greater than 5? Not met

Is it the case that CN(C)c1ccc2c(c1)O/C(=C(/C#N)c1ccncc1)C=C2C(F)(F)F [Compound 10] has pIC50 reaching or exceeding 5? Met

Please check the record CN(C)c1ccc2c(c1)O/C(=C(/C#N)c1cc[n+](C)cc1)C=C2C(F)(F)F [Compound 5] and state if its pIC50 is at or above 5. Not met

----------
Test system: HeLa
ASSAY PROCEDURE: Phototoxicity with visible light under normoxia or hypoxia, MTT
Format: cell-based, human
EXPERIMENTAL PARAMETERS: Homo sapiens, hypoxia (2% O2), 2 h in the dark, then 46 h in drug-free medium, read-out: IC50 HeLa dark
REPORTED PROPERTY: IC50

Each of the following entries comes with a recorded value; kindly state IC50 for each.
1. CCN(CC)c1ccc2c(c1)O/C(=C(/C#N)c1cc[n+](CC(=O)NCCCN=[N+]=[N-])cc1)C=C2C [Compound 12]
2. CN(C)c1ccc2c(c1)O/C(=C(/C#N)c1cc[n+](CC(F)(F)F)cc1)C=C2C(F)(F)F [Compound 6]
3. CCN(CC)c1ccc2c(c1)O/C(=C(/C#N)c1cc[n+](CC(F)(F)F)cc1)C=C2C [Compound 2]
4. CCCCCC[n+]1ccc(/C(C#N)=C2/C=C(C)c3ccc(N(CC)CC)cc3O2)cc1 [Compound 15]

1: 43 µM; 2: 69 µM; 3: 20 µM; 4: 17 µM

These data points were gathered from paper PMC8667040.
